Tested target: C-X-C chemokine receptor type 4 (Homo sapiens)
Experiment notes: Displacement of biotinylated-TN14003 from CXCL12 binding site of CXCR4 in human MDA-MB-231 cells assessed as concentration required to inhibit >50% using rhodamine staining
Assay type: cell-based
Each entry below lists one item and its recorded EC value.
State the answer as a number, implicitly in nM.

For reference, reported EC for Fc1ccccc1NCc1ccc(CNc2ccccc2F)cc1 stands at 100

----------
Tested target: C-X-C chemokine receptor type 4 (Homo sapiens, UniProt P61073)
Sequence (P61073 whole entry): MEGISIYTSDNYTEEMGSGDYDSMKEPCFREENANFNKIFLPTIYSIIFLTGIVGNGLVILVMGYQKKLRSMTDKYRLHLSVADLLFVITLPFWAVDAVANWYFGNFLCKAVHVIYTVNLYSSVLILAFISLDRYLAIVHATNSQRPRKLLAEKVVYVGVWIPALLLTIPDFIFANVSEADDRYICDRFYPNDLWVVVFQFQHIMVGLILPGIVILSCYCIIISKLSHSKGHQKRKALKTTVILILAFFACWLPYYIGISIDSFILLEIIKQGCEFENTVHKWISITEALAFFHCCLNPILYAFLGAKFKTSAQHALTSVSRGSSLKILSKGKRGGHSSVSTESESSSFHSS
Experiment notes: Antagonist activity at CXCR4 in human MDA-MB-231 cells assessed as inhibition of CXCL12-mediated cell invasion at 10 nM by […] cell invasion assay
Format: functional, cell-based
Note to self: values exactly at 60% are Y. So inhibition at or above 60% is Y, below is N.

Worked examples follow.
Smiles input	Tested target	Label class
Fc1ccccc1NCc1ccc(CNc2ncccn2)cc1	C-X-C chemokine receptor type 4 (Homo sapiens, UniProt P61073)	N
COc1nccc(NCc2ccc(CNc3ccnc(OC)n3)cc2)n1	C-X-C chemokine receptor type 4 (Homo sapiens, UniProt P61073)	N
Fc1cnc(NCc2ccc(CNc3nccc(C(F)(F)F)n3)cc2)nc1	C-X-C chemokine receptor type 4 (Homo sapiens, UniProt P61073)	Y
Clc1cccc(NCc2ccc(CNc3ncccn3)cc2)n1	C-X-C chemokine receptor type 4 (Homo sapiens, UniProt P61073)	Y
c1ccc(NCc2ccc(CNc3ccccc3)cc2)cc1	C-X-C chemokine receptor type 4 (Homo sapiens, UniProt P61073)	N
Fc1nccc(NCc2ccc(CNc3ccnc(F)n3)cc2)n1	C-X-C chemokine receptor type 4 (Homo sapiens, UniProt P61073)	Y
c1cnc(NCc2ccc(CNc3cccc(N4CCCC4)c3)cc2)nc1	C-X-C chemokine receptor type 4 (Homo sapiens, UniProt P61073)	N

Now take the following compound into account.
Is reported inhibition greater than or equal to 60% here: Fc1cccc(NCc2ccc(CNc3ncccn3)cc2)n1 N

----------
Experiment notes: Half life in iv dosed mouse
Assay type: ADME, organism-based
Conditions: in vivo
Test readout: half-life (min)
Provide only the numeric value, understood in min.

Note to self: half-life recorded for Fc1cnc(Cl)nc1NCc1ccc(CNc2ccnc(NCCN3CCOCC3)n2)cc1 was 15

----------
Below, each of the molecules is paired with its reported inhibition value.
Tested target: C-X-C chemokine receptor type 4 (Homo sapiens)
Experiment notes: Antagonist activity at CXCR4 in human MDA-MB-231 cells assessed as inhibition of CXCL12-mediated cell invasion at 100 nM by […] cell invasion assay
Assay type: functional, cell-based
Give the value, in units of %, as a plain number.

For orientation, consider the following solved cases.
Smiles input	Test readout	Unit abbreviation	Reported value
CCOCCN1CCN(C(=O)c2cnc(NCc3ccc(CNc4ncc(F)cn4)cc3)nc2C(F)(F)F)CC1	inhibition	%	95
c1cnc(NCc2ccc(CNc3cccc(N4CCCC4)c3)cc2)nc1	inhibition	%	78
Fc1cnc(NCc2ccc(CNc3ncc(F)cn3)cc2)nc1	inhibition	%	75
Fc1cccc(NCc2ccc(CNc3cccc(F)n3)cc2)n1	inhibition	%	85
Fc1nccc(NCc2ccc(CNc3ccnc(F)n3)cc2)n1	inhibition	%	81
Fc1cnc(Cl)nc1NCc1ccc(CNc2ccnc(NCCN3CCOCC3)n2)cc1	inhibition	%	100

Could you now consider this next molecule?
Note to self: inhibition recorded for COc1ncc(F)c(NCc2ccc(CNc3nc(OC)ncc3F)cc2)n1 was 100
